READOUT KIND: melting point

| COMPOUND | melting point |
| --- | --- |
| Cn1cc2c(=O)n(Cc3c(Cl)cccc3Cl)cnc2n1 [Compound 25] | 200 to 202 °C |
| Cc1nc2nn(C)cc2c(=O)n1Cc1c(F)cccc1F [Compound 64] | 201 to 202 °C |
| Cc1cc(C)c(Cn2cnc3n[nH]cc3c2=O)c(C)c1 [Compound 9] | 199 to 200 °C |

For every record below, what is its melting point?
1. COc1ccccc1Cn1cnc2n[nH]cc2c1=O [Compound 7]
2. CCCCn1cc2c(=O)n(Cc3c(F)cccc3Cl)cnc2n1 [Compound 47]
3. O=c1c2c[nH]nc2ncn1Cc1ccccn1 [Compound 10]
4. CCCn1cc2c(=O)n(Cc3c(F)cccc3F)cnc2n1 [Compound 41]
5. Cc1ccc(Cn2cnc3nn(-c4ccccc4)cc3c2=O)cc1 [Compound 51]
6. CCn1cc2c(=O)n(Cc3c(F)cccc3F)cnc2n1 [Compound 37]

Result:
1: 188 to 189 °C; 2: 156 to 157 °C; 3: 224 to 225 °C; 4: 167 to 168 °C; 5: 182 to 183 °C; 6: 185 to 187 °C

* * *

TEST NAME: Octanol/water partition coefficient
Assay type: physicochemical
Hi there, I'd appreciate the recorded logP for every entry that follows.
One number for each entry.

Example results:
| COMPOUND | logP |
| --- | --- |
| O=c1c2c[nH]nc2ncn1Cc1ccccc1Cl [Compound 1] | 1.14 |
| O=c1c2c[nH]nc2ncn1Cc1ccc(F)cc1 [Compound 3] | 0.62 |
| O=c1c2c[nH]nc2ncn1Cc1ccc(Cl)cc1Cl [Compound 4] | 1.96 |
| O=c1c2cn(Cc3ccccc3Cl)nc2ncn1Cc1ccccc1Cl [Compound 58] | 2.59 |

Below are 3 compounds. Give each one its logP.
1. Cc1ccccc1Cn1cnc2n[nH]cc2c1=O [Compound 6]
2. O=c1c2c[nH]nc2ncn1Cc1c(F)cccc1F [Compound 5]
3. Cn1cc2c(=O)n(Cc3cccc(Cl)c3)cnc2n1 [Compound 19]

Result:
1: 1.36; 2: 0.28; 3: 1.56

Items follow; give logP for each.
1. O=c1c2c[nH]nc2ncn1Cc1ccc(Cl)cc1 [Compound 2]
2. CCn1cc2c(=O)n(Cc3c(F)cccc3F)cnc2n1 [Compound 37]

Result:
1.34
1.43

Query: Suppose we examine the compound Cn1cc2c(=O)n(Cc3ccccc3)cnc2n1 [Compound 13] ; what logP value has been reported?
Result: 0.72

* * *

TEST NAME: Octanol/water partition coefficient
Format: physicochemical
READOUT KIND: logP
Give bare numbers.

// each listed compound needs a value for logP
1. O=c1c2c[nH]nc2ncn1Cc1ccccc1 [reference compound]
2. COc1ccccc1Cn1cnc2nn(C)cc2c1=O

Result:
1. 0.47
2. 0.92

Batch request: logP for each of the following compounds.
1. Cn1cc2c(=O)n(Cc3c(F)cccc3F)cnc2n1
2. Cc1ccccc1Cn1cnc2nn(C)cc2c1=O
3. CC(C)n1cc2c(=O)n(Cc3c(F)cccc3Cl)cnc2n1

Result:
0.67
1.76
1.88

Dear colleague, could you please provide logP for the compounds listed below?
1. O=c1c2cn(CC3CCCO3)nc2ncn1Cc1ccccc1Cl (stereo not shown)
2. O=c1c2c[nH]nc2ncn1Cc1ccccc1C(F)(F)F

Result:
1: 1.67; 2: 0.78
